Data origin, for the record: ChEMBL document CHEMBL4406921

Assay: Half life in rat liver microsomes at 3 uM
Type: ADME, Microsome
# strict inequality: half-life at 3 µM < 20 min yields 1, everything else yields 0

> print(dat)
                            smiles.structure  class.name
 1  NC(=O)c1cccc([C@H]2C[C@H]3CC[C@@H](C2)N3CCN(CC2CCCCC2)C(=O)CO)c1           0
 2  NC(=O)c1cccc([C@H]2C[C@H]3CC[C@@H](C2)N3CCN(CC2CCC2)C(=O)CO)c1           0
 3  NC(=O)c1cccc([C@H]2C[C@H]3CC[C@@H](C2)N3CCN(CC2CCOCC2)C(=O)CO)c1           0
 4  CCC(CC)CN(CCCCCN1[C@@H]2CC[C@H]1C[C@@H](c1cccc(C(N)=O)c1)C2)C(=O)CO           0
 5  CCC(CC)CN(CCCCCCN1[C@@H]2CC[C@H]1C[C@@H](c1cccc(C(N)=O)c1)C2)C(=O)CO           0
 6  C[C@H]1CN(CCCc2ccccc2)CC[C@@]1(C)c1cccc(O)c1           1
 7  CC(C)(C)C(=O)N(CCN1[C@@H]2CC[C@H]1C[C@@H](c1cccc(C(N)=O)c1)C2)CC1CCCCC1           1
 8  NC(=O)c1cccc([C@H]2C[C@H]3CC[C@@H](C2)N3CCN(Cc2ccccc2)C(=O)CO)c1           0
 9  NC(=O)c1cccc([C@H]2C[C@H]3CC[C@@H](C2)N3CCN(CC2CCCCC2)C(=O)Cc2nnn[nH]2)c1           0
10  NC(=O)c1cccc([C@H]2C[C@H]3CC[C@@H](C2)N3CCN(CC2CCCCC2)C(=O)c2ccco2)c1           1
11  CS(=O)(=O)N(CCN1[C@@H]2CC[C@H]1C[C@@H](c1cccc(C(N)=O)c1)C2)CC1CCCCC1           1
